- System: NOMO1
- run_description: cell viability relative to DMSO control; higher = less cytotoxic
- test_settings: RPMI 5 mM glucose + 10% dialyzed FBS; 48 h; 0.0632 µM
Each entry below carries its recorded cell viability.
Give just the numeric value; % need not be written.

Illustrative cases are given below, each with its answer.
{"compound_structure_string": "CCOC(=O)[C@@H](N)Cc1ccc(-c2cc(O[C@H](c3ccc(Cl)cc3-n3ccc(C)n3)C(F)(F)F)nc(N)n2)cc1.O=C(O)CNC(=O)c1ccccc1", "measured_number": 97}
{"compound_structure_string": "CC(C)(O)CC[C@@H](O)[C@](C)(O)[C@H]1CC[C@@]2(O)C/3=C/C(=O)[C@@H]4C[C@@H](O)[C@@H](O)C[C@]4(C)[C@H]3CC[C@]12C", "measured_number": 105}
{"compound_structure_string": "O=C1[C@H](Cc2ccc(O)cc2)N2C(=O)CCN(C(=O)NCc3ccccc3)[C@H]2CN1Cc1cccc2ccccc12", "measured_number": 92.5}

Prompt: Can you look up the measured cell viability of CCN1CCN(c2ccc(Nc3cc(N(C)C(=O)Nc4c(Cl)c(OC)cc(OC)c4Cl)ncn3)cc2)CC1 for me?
Completion: 130

Prompt: Can you look up the measured cell viability of OC[C@@H](O)[C@@H](O)[C@H](O)[C@@H](O)CO for me?
Completion: 113

Prompt: Can you look up the measured cell viability of C[C@@]12C(=O)OC(=O)[C@@]1(C)C1CCC2O1 for me?
Completion: 106

Prompt: Can you look up the measured cell viability of CC(C)(C)OC(=O)N[C@H]1CCCCC/C=C\[C@@H]2C[C@@]2(C(=O)N[S+](=O)([O-])C2CC2)NC(=O)[C@@H]2C[C@@H](OC(=O)N3Cc4cccc(F)c4C3)CN2C1=O for me?
Completion: 110

====

- System: NOMO1
- run_description: cell viability relative to DMSO control; higher = less cytotoxic
- test_settings: HPLM + 10% dialyzed FBS; 48 h; 0.19 µM
Each entry below carries its recorded cell viability.
Give just the numeric value; % need not be written.

Illustrative cases are given below, each with its answer.
{"compound": "NNCCc1ccccc1", "cell viability [%]": 115}
{"compound": "C[C@H]1COC2=C3N1\\C=C(C(O)=O)/C(=O)C3=CC(=C2N4CCN(C)CC4)F", "cell viability [%]": 106}
{"compound": "Nc1ncnc2c1ncn2[C@@H]1O[C@@H](CO)[C@H](O)[C@@H]1O", "cell viability [%]": 134}
{"compound": "CN[C@H]1CCC2=CC(=C(OC)C(=C2C/3=C/C=C(OC)\\C(=O)/C=C13)OC)OC", "cell viability [%]": 38.4}

Prompt: Can you look up the measured cell viability of C1=C/COCc2cc(ccc2OCCN2CCCC2)Nc2nccc(n2)-c2cccc(c2)OCC/1 for me?
Completion: 130

Prompt: Can you look up the measured cell viability of CCN(CC)CCCCNc1ncc2cc(-c3cc(OC)cc(OC)c3)c(NC(=O)NC(C)(C)C)nc2n1 for me?
Completion: 108

Prompt: Can you look up the measured cell viability of CCc1ccc(CCOc2ccc(CC3SC(=O)NC3=O)cc2)nc1 (centres undefined) for me?
Completion: 113

Prompt: Can you look up the measured cell viability of C[C@]12CC[C@H]3[C@@H](CC[C@H]4NC(=O)\C=C/[C@]34C)[C@@H]1CC[C@@H]2C(=O)NC5=CC(=CC=C5C(F)(F)F)C(F)(F)F for me?
Completion: 114

Prompt: Can you look up the measured cell viability of OC[C@@H](O)[C@@H](O)[C@H](O)[C@@H](O)CO for me?
Completion: 131
